Biological target: recombinant human CD3ε/δ heterodimer (human) (UniProt P07766)
Sequence (P07766 23-126, stated change not applied, chain 1 of 2): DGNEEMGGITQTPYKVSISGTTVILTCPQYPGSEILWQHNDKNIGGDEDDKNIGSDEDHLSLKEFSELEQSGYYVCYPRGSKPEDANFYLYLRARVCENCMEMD
Sequence (P04234 22-105, stated change not applied, chain 2 of 2, further chain): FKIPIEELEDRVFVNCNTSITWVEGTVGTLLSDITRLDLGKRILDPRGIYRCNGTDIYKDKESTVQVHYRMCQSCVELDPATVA
Experiment: ELISA, coated CD3ε/δ
The following binders are listed with their measured Absorbance (450 nm) values.
Just the number.

Take a look at these entries with their results.
binder	propertyLabel	obsValue
C16 (antibody, human IgG1, lambda, L234A L235A, V domains shown) VH: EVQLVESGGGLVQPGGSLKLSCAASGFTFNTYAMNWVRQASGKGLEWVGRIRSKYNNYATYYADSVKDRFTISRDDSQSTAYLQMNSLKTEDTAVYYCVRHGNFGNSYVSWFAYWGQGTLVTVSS VL: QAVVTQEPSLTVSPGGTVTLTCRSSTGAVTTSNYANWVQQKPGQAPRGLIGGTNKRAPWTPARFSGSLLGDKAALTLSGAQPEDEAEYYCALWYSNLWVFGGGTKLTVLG	Absorbance (450 nm)	2.37
G15 (antibody, human IgG1, lambda, L234A L235A, V domains shown) VH: EVQLVESGGGLVQPGGSLKLSCAASGFTFNTYAMNWVRQASGKGLEWVARIRSKYNNYATYYADSVKDRFTISRDDSQSTAYLQMNSLKTEDTAVYYCVRHGNFGNSYVSWFAYWGQGTLVTVSS VL: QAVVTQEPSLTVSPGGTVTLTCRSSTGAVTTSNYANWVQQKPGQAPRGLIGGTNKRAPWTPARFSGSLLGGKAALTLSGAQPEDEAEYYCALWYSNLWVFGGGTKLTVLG	Absorbance (450 nm)	2.42
F10 (antibody, human IgG1, lambda, L234A L235A, V domains shown) VH: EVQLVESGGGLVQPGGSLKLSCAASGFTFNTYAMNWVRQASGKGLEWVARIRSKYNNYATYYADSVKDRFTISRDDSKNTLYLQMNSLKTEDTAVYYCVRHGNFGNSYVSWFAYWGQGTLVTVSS VL: QAVVTQEPSLTVSPGGTVTLTCRSSTGAVTTSNYANWVQQKPGQAPRTLIYGTNKRAPWTPARFSGSLLGDKAALTLSGAQPEDEAEYYCALWYSNLWVFGGGTKLTVLG	Absorbance (450 nm)	0.118

QUERY: Would you mind telling me what Absorbance (450 nm) value was observed for E07 (antibody, human IgG1, lambda, L234A L235A, V domains shown) VH: EVQLVESGGGLVQPGGSLKLSCAASGFTFNTYAMNWVRQASGKGLEWVARIRSKYNNYATYYADSVKDRFTISRDDSKNTAYLQMNSLKTEDTAVYYCVRHGNFGNSYVSWFAYWGQGTLVTVSS VL: QAVVTQEPSLTVSPGGTVTLTCRSSTGAVTTSNYANWFQQKPGQAPRGLIGGTNKRAPWTPARFSGSLLGGKAALTLSGAQPEDEAEYYCALWYSNLWVFGGGTKLTVLG ?
RESULT: 0.109

QUERY: What Absorbance (450 nm) value was documented for this binder, A09 (antibody, human IgG1, lambda, L234A L235A, V domains shown) VH: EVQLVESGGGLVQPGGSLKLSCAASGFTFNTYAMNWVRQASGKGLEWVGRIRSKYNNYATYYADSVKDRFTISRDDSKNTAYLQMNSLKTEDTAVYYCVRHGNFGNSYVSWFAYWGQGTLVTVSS VL: QAVVTQEPSLTVSPGGTVTLTCRSSTGAVTTSNYANWVQQKPGQAPRTLIYGTNKRAPWTPARFSGSLLGGKAALTLSGAQPEDEAEYYCALWYSNLWVFGGGTKLTVLG ?
RESULT: 0.092

Values compiled from patent US20200317779A1.
